Ref: patent US20170037110A1

# Target Desc: T1, HLA-A*02:01 (human)
# T1 construct: monomers captured on streptavidin plates; also called MHC class I
# Experiment Description: UV peptide exchange ELISA
Measured Endpoint: peptide exchange yield

| Binder | Value Reported |
| --- | --- |
| ALPVSLPQI | 50 to 75% |
| KLYEGIPVLL | ≥ 75% |
| VLYSYTIITV | 20 to 50% |
| YLLHEKLNL | 50 to 75% |
| SIQQSIERLLV | 20 to 50% |

Kindly indicate its recorded peptide exchange yield. Item: FIMPATVADATAV 50 to 75%

Kindly indicate its recorded peptide exchange yield. Item: VLLDDIFAQL 50 to 75%

Kindly indicate its recorded peptide exchange yield. Item: TLVLTLPTV ≥ 75%
